molecular target: NS5B from the BK strain (genotype 1b) (Hepatitis C virus genotype 1b, UniProt P26663); construct: NS5B from the BK strain (genotype 1b) is expressed in E. coli as a protein in which the 21 C-terminal amino acids are replaced; made in house; host or cells: E. coli; assay: Hepatitis C polymerase inhibition, NS5B BK strain, 33P-GTP filter assay; type: biochemical; settings: Table 1A; NS5B BK strain; read-out: HCV pol BK IC50
Sequence (P26663 2420-2989): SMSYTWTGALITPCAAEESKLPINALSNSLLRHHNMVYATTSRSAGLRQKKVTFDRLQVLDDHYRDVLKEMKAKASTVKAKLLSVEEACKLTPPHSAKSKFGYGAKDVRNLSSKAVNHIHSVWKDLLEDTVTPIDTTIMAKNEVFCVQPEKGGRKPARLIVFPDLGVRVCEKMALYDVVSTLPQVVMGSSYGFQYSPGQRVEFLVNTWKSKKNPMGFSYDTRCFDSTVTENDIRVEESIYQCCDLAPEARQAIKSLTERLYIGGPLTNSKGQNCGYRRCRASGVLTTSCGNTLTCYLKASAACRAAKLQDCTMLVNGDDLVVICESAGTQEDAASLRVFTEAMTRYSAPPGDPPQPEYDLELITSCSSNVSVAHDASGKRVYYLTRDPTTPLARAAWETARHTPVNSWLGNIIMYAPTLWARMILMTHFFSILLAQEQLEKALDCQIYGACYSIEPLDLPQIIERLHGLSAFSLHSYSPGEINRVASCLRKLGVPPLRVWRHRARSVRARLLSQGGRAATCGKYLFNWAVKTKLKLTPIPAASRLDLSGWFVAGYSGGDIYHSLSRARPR
property-measured: log10(IC50) (log10 of the value in µM)

1) CCCCC1(CC(=O)O)OCCc2c1[nH]c1c(Cl)cc(C)c(Br)c21 (stereo not drawn) | 0.60
2) CCCC1(CC(=O)O)OCCc2c1[nH]c1c(Cl)ccc(Cl)c21 (stereo not drawn) | -0.70
3) O=C(O)CC1(c2ccoc2)OCCc2c1[nH]c1c(Cl)ccc(Cl)c21 (stereo not drawn) | 1.11
4) Cc1cc(F)c(Br)c2c3c([nH]c12)C(CC(=O)O)(c1ccc(C(=O)O)cc1)OCC3 (stereo not drawn) | 0.08
5) CCCC1(CC(=O)O)OCCc2c1[nH]c1c(Br)cccc21 (stereo not drawn) | 0.96
6) CC(C)C1(CC(=O)O)OCCc2c1[nH]c1c(F)cc(F)c(Br)c21 (stereo not drawn) | 0.65
7) CCCCC1(CC(=O)O)OCCc2c1[nH]c1c(C)cc(F)c(C#N)c21 (stereo not drawn) | -0.64
8) CCC1(CC(=O)O)OCCc2c1[nH]c1c(Cl)ccc(C(F)(F)F)c21 (stereo not drawn) | 0.74
9) CCCC1(CC(=O)O)OCCc2c1[nH]c1c(F)ccc(Br)c21 (stereo not drawn) | 0.00
10) Cc1ccc(F)c2c3c([nH]c12)C(CC(=O)O)(C(C)C)OCC3 (stereo not drawn) | 1.22
11) CCCCC1(CC(=O)O)OCCc2c1[nH]c1c(F)cc(C)c(C#N)c21 (stereo not drawn) | 0.00
12) O=C(O)CC1(c2ccoc2)OCCc2c1[nH]c1c(Cl)cc(Cl)c(Cl)c21 (stereo not drawn) | 0.38
13) CCCC1(CC(=O)O)OCCc2c1[nH]c1c(Cl)cc(Cl)cc21 (stereo not drawn) | 0.18
14) CCCC1(CC(=O)O)OCCc2c1[nH]c1c(F)ccc(-c3ccc(OC)cc3)c21 (stereo not drawn) | 1.20
15) O=C(O)CC1(c2ccc(C(=O)O)cc2)OCCc2c1[nH]c1c(Cl)cc(Cl)c(Cl)c21 (stereo not drawn) | -0.52
16) CCCCC1(CC(=O)O)OCCc2c1[nH]c1c(Cl)cc(Cl)cc21 (stereo not drawn) | 1.16

###

target: NS5B from the BK strain (genotype 1b) (Hepatitis C virus genotype 1b, UniProt P26663); construct: NS5B from the BK strain (genotype 1b) is expressed in E. coli as a protein in which the 21 C-terminal amino acids are replaced; made in house; host or cells: E. coli; assay: Hepatitis C polymerase inhibition, NS5B BK strain, 33P-GTP filter assay; assay type: biochemical; conditions: Table 1A; 20 μM compound; read-out: HCV pol % inh at 20 μM
property-measured: inhibition at 20 µM (%)

1) CCCC1(CC(=O)O)OCCc2c1[nH]c1c(F)cc(F)c(Br)c21 (stereo not shown) | 94
2) CCCC1(CC(=O)O)OCCc2c1[nH]c1cccc(Cl)c21 (stereo not shown) | 75
3) O=C(O)CC1(c2ccccc2)OCCc2c1[nH]c1c(Cl)cc(Cl)c(Cl)c21 (stereo not shown) | 15
4) CC(C)C1(CC(=O)O)OCCc2c1[nH]c1cccc(Br)c21 (stereo not shown) | 12
5) O=C(O)CC1(c2ccoc2)OCCc2c1[nH]c1c(Cl)cccc21 (stereo not shown) | 40
6) Cc1ccc(F)c2c3c([nH]c12)C(C)(CC(=O)O)OCC3 (stereo not shown) | 28
7) CCC1(CC(=O)O)OCCc2c1[nH]c1c(C)cc(F)c(C#N)c21 (stereo not shown) | 84
8) CCCC1(CC(=O)O)OCCc2c1[nH]c1c(-c3ccccc3)cccc21 (stereo not shown) | 36
9) CCCCC1(CC(=O)O)OCCc2c1[nH]c1c(Br)cccc21 (stereo not shown) | 46
10) CC1(CC(=O)O)OCCc2c1[nH]c1c(F)ccc(F)c21 (stereo not shown) | 5
11) CCCCC1(CC(=O)O)OCCc2c1[nH]c1c(Br)ccc(Br)c21 (stereo not shown) | 87
12) CCCC1(CC(=O)O)OCCc2c1[nH]c1cccc(-c3ccc(F)cc3)c21 (stereo not shown) | 18
13) CCC1(CC(=O)O)OCCc2c1[nH]c1c(Cl)cccc21 (stereo not shown) | 22
14) CCC1(CC(=O)O)OCCc2c1[nH]c1c(C)ccc(C)c21 (stereo not shown) | 38
15) CCCC1(CC(=O)O)OCCc2c1[nH]c1cccc(-c3ccccc3)c21 (stereo not shown) | 12
16) C/C=C/CCC1(CC(=O)O)OCCc2c1[nH]c1c(Cl)cccc21 (stereo not shown) | 16
17) CCCC1(CC(=O)O)OCCc2c1[nH]c1c(C#N)cccc21 (stereo not shown) | 44
